system: HT29 colon; assay: NCI-60 one-dose screen, 48 h; details: 10 µM unless noted
About 83,000 compounds went through this panel and 20% of them were active in at least one assay; those are over-represented in the sample as a whole. The source made the active and inactive calls. The calls were made as follows: active = growth percent below 10; inactive = the rest.
Labels: active, inactive

[
  {
    "Molecule": "Cc1cc2c([nH]1)CSc1cc(S(=O)(=O)c3ccccc3)c(=O)[nH]c1-2",
    "Answer Label": "inactive"
  },
  {
    "Molecule": "C1=C(N2CCCC2)CCC1",
    "Answer Label": "inactive"
  },
  {
    "Molecule": "C1=CN2CC(c3ccccc3)=NNC2c2ccccc21 (stereo not drawn)",
    "Answer Label": "inactive"
  },
  {
    "Molecule": "COc1ccc(C2=Nc3c/c(=C\\c4c(O)[nH]c5ccc(Cl)cc45)ccc3=N2)cc1",
    "Answer Label": "active"
  },
  {
    "Molecule": "CC(=O)OCc1nc(C#N)c(N(C)C)o1",
    "Answer Label": "inactive"
  },
  {
    "Molecule": "Cc1cccnc1NC(=S)Nc1ncccc1C",
    "Answer Label": "inactive"
  },
  {
    "Molecule": "O=C1c2c(c3c4ccccc4[nH]c3c3ccc4ccccc4c23)C(=O)N1CCN1CCCCC1",
    "Answer Label": "inactive"
  },
  {
    "Molecule": "CCCCCOc1ccc(C(=O)/C(Br)=C/C(=O)O)cc1",
    "Answer Label": "inactive"
  },
  {
    "Molecule": "O=C(O)/C(=C\\c1ccc(Cl)cc1)c1ccc(Cl)cc1",
    "Answer Label": "inactive"
  },
  {
    "Molecule": "OCc1cccc(-c2ccc3ncc(-c4nc(NC5CC5)ncc4F)n3c2)c1",
    "Answer Label": "active"
  },
  {
    "Molecule": "CC1(C)CCC(S(=O)(=O)c2ccc3c(c2)/C(=N\\O)c2cc(S(=O)(=O)N4CCC(O)(c5cccc(C(F)(F)F)c5)CC4)ccc2-3)CC1",
    "Answer Label": "active"
  },
  {
    "Molecule": "CCCCC(=O)Nc1ncc(Cc2ccc(Cl)cc2)s1",
    "Answer Label": "inactive"
  },
  {
    "Molecule": "COc1ccc(C2c3sc4c(F)cccc4c3Oc3nc[nH]c(=O)c32)cc1 (stereo not drawn)",
    "Answer Label": "inactive"
  },
  {
    "Molecule": "Cn1cc(-c2nc(-c3c[nH]c4ccncc34)cs2)c2ccccc21",
    "Answer Label": "active"
  },
  {
    "Molecule": "O=C1/C(=C/c2ccc(Cl)cc2)COc2ccc(O)c(O)c21",
    "Answer Label": "inactive"
  },
  {
    "Molecule": "Nc1c(C(=O)Nc2ccncc2)sc2nc3c(cc12)CCCCCC3",
    "Answer Label": "inactive"
  },
  {
    "Molecule": "CNC(=O)c1cc(Oc2ccc3nc(NC(C)=O)sc3c2)ccn1",
    "Answer Label": "inactive"
  },
  {
    "Molecule": "CN(C)c1ccc(Nc2cc(-c3cccc(OC(F)(F)F)c3)nc3ccc(N4CCCC4)cc23)cc1",
    "Answer Label": "active"
  },
  {
    "Molecule": "Cc1ccc(Cl)cc1Nc1nc(C(F)(F)F)ccc1C(=O)N/N=C/c1cccnc1",
    "Answer Label": "inactive"
  },
  {
    "Molecule": "O=C(/C=C(/C=C/c1cccc2[nH]ccc12)OB(F)F)/C=C/c1cccc2[nH]ccc12",
    "Answer Label": "active"
  },
  {
    "Molecule": "Fc1cc(F)cc(C(c2c[nH]c3ccccc23)c2c[nH]c3ccccc23)c1",
    "Answer Label": "inactive"
  },
  {
    "Molecule": "COc1cc(CNC(=O)CCCC/C=C/C(C)C)ccc1OCc1nnc(Nc2ccc([N+](=O)[O-])cc2)o1",
    "Answer Label": "inactive"
  },
  {
    "Molecule": "O=C1N[C@@H]2NC(=[N+]3CCOCC3)N[C@@H]2N1",
    "Answer Label": "inactive"
  },
  {
    "Molecule": "COc1cc(CNS(=O)(=O)c2ccc(C)cc2)ccc1OCc1cn(-c2ccc(F)cc2)nn1",
    "Answer Label": "inactive"
  },
  {
    "Molecule": "COc1ccc(C/C(C)=C(/c2ccc(OCCN3CCCCC3)cc2)c2ccc(OC(=O)NCc3ccccc3)cc2)cc1",
    "Answer Label": "active"
  },
  {
    "Molecule": "O=C(c1ccc(-c2ccccc2)cc1)c1ccc([N+](=O)[O-])cc1",
    "Answer Label": "inactive"
  },
  {
    "Molecule": "CCOC(=O)c1nc(Nc2ccc(NC(=O)Nc3ccc(F)cc3)cc2)c2ccccc2n1",
    "Answer Label": "inactive"
  },
  {
    "Molecule": "Cc1ccc(NC(=S)NNC(=S)NNc2ccccc2)cc1C",
    "Answer Label": "inactive"
  }
]
